Target: human EP2 prostanoid receptors (Homo sapiens, UniProt P43116)
Construct: expressed in transfected cells; host or cells: HEK-293
Sequence (P43116 whole entry): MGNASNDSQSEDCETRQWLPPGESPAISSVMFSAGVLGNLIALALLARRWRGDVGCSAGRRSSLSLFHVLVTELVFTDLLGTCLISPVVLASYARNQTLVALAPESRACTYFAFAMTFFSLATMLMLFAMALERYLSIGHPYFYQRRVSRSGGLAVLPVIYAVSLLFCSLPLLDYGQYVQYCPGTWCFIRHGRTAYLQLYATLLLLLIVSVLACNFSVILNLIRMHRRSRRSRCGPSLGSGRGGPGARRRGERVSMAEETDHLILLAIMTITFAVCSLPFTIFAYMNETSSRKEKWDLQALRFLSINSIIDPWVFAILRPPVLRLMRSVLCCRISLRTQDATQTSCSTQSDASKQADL
Test: Agonist activity at recombinant human EP2 prostanoid receptors (cAMP in HEK-293 clones)
Type: cell-based
Details: HEK-293 stably transfected with human EP2; cAMP accumulation; read-out: pEC50 EP2 (converted)
measurement label: EC50

# count of solved cases: 4
compound | value observed
O=C(O)/C=C/c1cccc(NC(=O)c2cc(-c3cccc(F)c3)ccc2F)c1 | < 100 nM
O=C(O)Cc1cccc(NC(=O)c2cccc(-c3cc(Cl)cc(Cl)c3)n2)c1 | < 100 nM
O=C(O)c1ccc(CNC(=O)c2ccc(-c3ccccc3)o2)cc1 | < 10000 nM
CC(C)c1cccc(-c2ccc(C(=O)Nc3cccc(CC(=O)O)c3)o2)c1 | < 1000 nM

Okay, next one:
// lookup EC50 for O=C(O)/C=C/c1cccc(NC(=O)c2cc(-c3ccccc3)ccc2F)c1
< 100 nM

* * *

Target: human EP2 prostanoid receptors (Homo sapiens)
Construct: expressed in transfected cells; host or cells: HEK-293
Test: Agonist activity at recombinant human EP2 prostanoid receptors (cAMP in HEK-293 clones)
Format: cell-based
Conditions: HEK-293 stably transfected with human EP2; cAMP accumulation; read-out: pEC50 EP2 (converted)
measurement label: EC50

compound | EC50
O=C(Nc1ccc2sc(C(=O)O)cc2c1)c1ccc(-c2ccccc2)o1 [Compound 97] | < 1000 nM
O=C(O)Cc1cccc(NC(=O)c2cccc(-c3ccc(Cl)cc3)n2)c1 [Compound 150] | < 1000 nM
O=C(O)Cc1cccc(NC(=O)c2ccc(-c3cc(Cl)cc(Cl)c3)o2)c1 [Compound 26] | < 100 nM

// lookup EC50 for O=C(O)CCc1cccc(NC(=O)c2ccc(-c3cccc(Cl)c3)o2)c1 [Compound 125]
< 100 nM

// lookup EC50 for O=C(O)Cc1cccc(NC(=O)c2ccc(-c3cccc4ccccc34)o2)c1 [Compound 31]
< 1000 nM

// lookup EC50 for O=C(Nc1cccc(Cc2nnn[nH]2)c1)c1cccc(-c2cccc(F)c2)n1 [Compound 94]
< 100 nM

// lookup EC50 for O=C(Nc1ccc2[nH]c(C(=O)O)cc2c1)c1cccc(-c2cc(Cl)cc(Cl)c2)n1 [Compound 135]
< 1000 nM

// lookup EC50 for O=C(O)/C=C/c1cccc(NC(=O)c2cccc(-c3ccc(Cl)cc3)n2)c1 [Compound 151]
< 100 nM

// lookup EC50 for O=C(O)/C=C/c1cccc(CC(=O)c2ccc(-c3ccccc3)o2)c1 [Compound 120]
< 1000 nM

// lookup EC50 for O=C(O)COc1cccc(NC(=O)c2ccc(-c3cccc(F)c3)o2)c1 [Compound 168]
< 100 nM

// lookup EC50 for O=C(O)COc1cccc(NC(=O)c2ccc(-c3cccc(Cl)c3)o2)c1 [Compound 66]
< 100 nM

// lookup EC50 for O=C(Nc1cccc(Cc2nnn[nH]2)c1)c1ccc(-c2cc(Cl)cc(Cl)c2)o1 [Compound 82]
< 100 nM

// lookup EC50 for O=C(O)COc1cccc(NC(=O)c2ccc(-c3ccc(Cl)cc3)o2)c1 [Compound 156]
< 100 nM

// lookup EC50 for O=C(Nc1cccc(OCc2nnn[nH]2)c1)c1ccc(-c2ccccc2)o1 [Compound 173]
< 100 nM

// lookup EC50 for O=C(O)/C=C/c1cccc(NC(=O)c2csc(-c3ccccc3)n2)c1 [Compound 115]
< 100 nM

// lookup EC50 for O=C(O)CCc1cccc(NC(=O)c2cccc(-c3cccc(F)c3)n2)c1 [Compound 162]
< 100 nM

// lookup EC50 for O=C(O)Cc1cccc(NC(=O)c2csc(-c3ccccc3)n2)c1 [Compound 54]
< 1000 nM

// lookup EC50 for COc1ccc(-c2ccc(C(=O)Nc3cccc(CC(=O)O)c3)o2)cc1 [Compound 12]
< 1000 nM

* * *

Molecular target: human EP2 prostanoid receptors (Homo sapiens)
Construct: expressed in transfected cells; host or cells: HEK-293
Assay: Agonist activity at recombinant human EP2 prostanoid receptors (cAMP in HEK-293 clones)
Format: cell-based
Details: functional classification at EP2
measurement label: activity (EP2 part)

# count of solved cases: 5
compound | activity (EP2 part)
O=C(O)Cc1cccc(NC(=O)c2ccc(-c3ccc(Cl)cc3)o2)c1 [Compound 40] | EP2 agonist
O=C(Nc1cccc(Cc2nnn[nH]2)c1)c1ccc(-c2cccc(Cl)c2)o1 [Compound 81] | EP2 Agonist
O=C(O)CCc1cccc(NC(=O)c2ccc(-c3ccc(Cl)cc3)o2)c1 [Compound 147] | EP2 Agonist
O=C(O)/C=C/c1cccc(NC(=O)c2ccc(-c3cc(Cl)cc(Cl)c3)o2)c1 [Compound 70] | EP2 agonist/
O=C(O)Cc1cccc(NC(=O)c2ccc(-c3cccc(Cl)c3)o2)c1 [Compound 39] | EP2 agonist

// lookup activity (EP2 part) for O=C(O)Cc1cccc(NC(=O)c2cc(-c3ccccc3)ccc2F)c1 [Compound 51]
EP2 agonist

// lookup activity (EP2 part) for O=C(O)COc1cccc(NC(=O)c2cc(-c3ccccc3)ccc2F)c1 [Compound 165]
EP2 Agonist

// lookup activity (EP2 part) for O=C(O)/C=C/c1cccc(NC(=O)c2cc(-c3cccc(F)c3)ccc2F)c1 [Compound 108]
EP2 Agonist

// lookup activity (EP2 part) for O=C(O)/C=C/c1cccc(NC(=O)c2ccc(-c3ccc4c(c3)OCO4)o2)c1 [Compound 101]
EP2 Agonist

// lookup activity (EP2 part) for O=C(O)Cc1cccc(NC(=O)c2ccc(-c3cccc(Cl)c3Cl)o2)c1 [Compound 37]
EP2 agonist

// lookup activity (EP2 part) for O=C(O)/C=C/c1cccc(NC(=O)c2cc(-c3cccc(Cl)c3)ccc2F)c1 [Compound 142]
EP2 Agonist

// lookup activity (EP2 part) for O=C(O)CCc1cccc(NC(=O)c2cccc(-c3cc(Cl)cc(Cl)c3)n2)c1 [Compound 134]
EP2 Agonist

// lookup activity (EP2 part) for O=C(O)/C=C/c1cccc(NC(=O)c2cc(-c3cc(Cl)cc(Cl)c3)ccc2F)c1 [Compound 144]
EP2 Agonist

* * *

Target: human EP2 receptor (Homo sapiens)
Construct: expressed in transfected cells
Assay: Binding ability to human EP receptors ([3H]PGE2 displacement), EP2
Conditions: membranes expressing human EP2; [3H]PGE2 3 nM; Cheng-Prusoff; read-out: pKi (M) EP2 (converted)
measurement label: Ki

compound | Ki
O=C(O)COc1cccc(NC(=O)c2cc(-c3cccc(Cl)c3)ccc2F)c1 | < 1e-07 M
O=C(O)CCc1cccc(NC(=O)c2cccc(-c3ccccc3)n2)c1 | < 1e-06 M
O=C(O)Cc1cccc(NC(=O)c2ccc(-c3cc(Cl)cc(Cl)c3)o2)c1 | < 1e-07 M
Cc1ccccc1-c1ccc(C(=O)Nc2cccc(CC(=O)O)c2)o1 | < 1e-06 M
O=C(Nc1cccc(Cc2nnn[nH]2)c1)c1ccc(-c2cccc(F)c2)o1 | < 1e-07 M
O=C(O)Cc1cccc(NC(=O)c2cc(-c3ccccc3)ccc2F)c1 | < 1e-06 M

// lookup Ki for O=C(O)CCc1cccc(NC(=O)c2ccc(-c3ccc(Cl)cc3)o2)c1
< 1e-07 M

// lookup Ki for O=C(O)Cc1cccc(NC(=O)c2cccc(-c3cc(Cl)cc(Cl)c3)n2)c1
< 1e-07 M

// lookup Ki for O=C(O)Cc1cccc(NC(=O)c2cccc(-c3ccc(F)cc3)n2)c1
< 1e-07 M

* * *

// reported Ki per item
Target: human EP2 receptor (Homo sapiens, UniProt P43116)
Construct: expressed in transfected cells
Sequence (P43116 whole entry): as above
Test: Binding ability to human EP receptors ([3H]PGE2 displacement), EP2
Settings: membranes expressing human EP2; [3H]PGE2 3 nM; Cheng-Prusoff; read-out: pKi (M) EP2 (converted)

# count of solved cases: 5
compound | system tested | value observed
O=C(O)Cc1cccc(NC(=O)c2ccc(-c3ccccc3)o2)c1 | human EP2 receptor (Homo sapiens, UniProt P43116) | < 1e-06 M
Cc1cc(C(=O)Nc2cccc(CC(=O)O)c2)sc1-c1ccccc1 | human EP2 receptor (Homo sapiens, UniProt P43116) | < 1e-05 M
O=C(Nc1ccc2sc(C(=O)O)cc2c1)c1ccc(-c2ccccc2)o1 | human EP2 receptor (Homo sapiens, UniProt P43116) | < 1e-06 M
O=C(O)Cc1cccc(NC(=O)c2ccc(-c3cc(F)cc(F)c3)o2)c1 | human EP2 receptor (Homo sapiens, UniProt P43116) | < 1e-07 M
O=C(O)/C=C/c1cccc(NC(=O)c2ccc(-c3ccc(Cl)cc3)o2)c1 | human EP2 receptor (Homo sapiens, UniProt P43116) | < 1e-07 M

// lookup Ki for CC(C)c1ccc(-c2ccc(C(=O)Nc3cccc(CC(=O)O)c3)o2)cc1
< 1e-05 M

// lookup Ki for O=C(Nc1cccc(Cc2nnn[nH]2)c1)c1ccc(-c2ccc(F)cc2)o1
< 1e-07 M

// lookup Ki for O=C(O)CCc1cccc(NC(=O)c2ccc(-c3ccc(F)cc3)o2)c1
< 1e-07 M

// lookup Ki for O=C(O)/C=C/c1cccc(NC(=O)c2cc(-c3cc(Cl)cc(Cl)c3)ccc2F)c1
< 1e-07 M
